Assay: IGROV1 ovarian cancer cell cytotoxicity, dose response, PAX8 inhibitor project, plate reader, dry powder samples (AID 743043);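 further: more negative means fewer viable cells or more cytotoxicity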
Details: series mostly up to 35 µM
Potency and affinity values are given separately. Records with an inconclusive call do not appear. Calls of active or inactive are those of the source. How the calls were made is not given here.
Value type: outcome

{"columns": ["Given smiles", "Val"],
 "data": [
  ["CC(C)CC#Cc1ccc2c(c1)O[C@H](CN(C)Cc1ccc(F)cc1)[C@H](C)CN([C@H](C)CO)S2(=O)=O", "inactive"],
  ["COc1ccccc1S(=O)(=O)N(C)C[C@@H]1Oc2cc(C#CCC3CCCC3)ccc2S(=O)(=O)N([C@@H](C)CO)C[C@@H]1C", "inactive"],
  ["C[C@@H]1CCCCO[C@H](CN(C)S(=O)(=O)c2ccccc2)[C@H](C)CN([C@@H](C)CO)C(=O)c2cc(NS(=O)(=O)c3ccc(Cl)cc3)ccc2O1", "inactive"],
  ["COc1cccc(C#Cc2ccc([C@@H]3[C@@H](C#N)N(C(=O)C4CCCC4)[C@@H]3CO)cc2)c1", "inactive"],
  ["C[C@@H]1CCCCO[C@@H](CN(C)C(=O)Nc2ccc(F)cc2)[C@H](C)CN([C@@H](C)CO)C(=O)c2cc(NC(=O)Nc3ccc(C(F)(F)F)cc3)ccc2O1", "inactive"],
  ["COc1ccc(NC(=O)Nc2ccc3c(c2)CC(=O)N([C@H](C)CO)C[C@@H](C)[C@@H](CN(C)Cc2ccc(Oc4ccccc4)cc2)O3)cc1", "inactive"],
  ["C[C@H](CO)N1C[C@H](C)[C@@H](CN(C)Cc2ccc(-c3ccccc3)cc2)Oc2ccc(NC(=O)Cc3ccccc3)cc2CC1=O", "inactive"],
  ["COc1ccccc1C#Cc1ccc2c(c1)O[C@H](CN(C)Cc1cccnc1)[C@H](C)CN([C@@H](C)CO)S2(=O)=O", "inactive"],
  ["Cc1noc(C)c1S(=O)(=O)N(C)C[C@@H]1OCCCC[C@H](C)Oc2ccc(NS(=O)(=O)c3ccc(Cl)cc3)cc2C(=O)N([C@H](C)CO)C[C@@H]1C", "inactive"],
  ["CO[C@H]1CN(C)C(=O)c2cc(NC(=O)c3nc4ccccc4s3)ccc2OC[C@H](C)N(Cc2cccnc2)C[C@H]1C", "inactive"],
  ["C[C@H]1CN([C@@H](C)CO)C(=O)Cc2cc(NC(=O)Nc3ccc(F)cc3)ccc2O[C@H]1CN(C)Cc1ccc(Cl)c(Cl)c1", "inactive"],
  ["COc1cccc(S(=O)(=O)N(C)C[C@@H]2Oc3cc(C4=CCCCC4)ccc3S(=O)(=O)N([C@@H](C)CO)C[C@H]2C)c1", "inactive"],
  ["C[C@@H]1CN([C@@H](C)CO)C(=O)Cc2cc(NC(=O)C3CC3)ccc2O[C@H]1CN(C)Cc1ccc(-c2ccccc2)cc1", "inactive"],
  ["C[C@@H]1CN([C@@H](C)CO)C(=O)Cc2cc(NC(=O)c3ccncc3)ccc2O[C@@H]1CN(C)Cc1ccc(-c2ccccc2)cc1", "inactive"]
]}

====

Assay: FRG1 promoter luciferase signal modulators, primary screen, FRG1 inhibition for FSHD, cell-based, C2C12 myotubes, firefly/Renilla luciferase, luminescence (AID 1084)
Conditions: higher = more signal, called active from +8 up or from −8 down
Active and inactive are the calls of the source.
Reported z-score by item:
Value type: z-score

{"columns": ["Compound", "Val"],
 "data": [
  ["CCCCCN1CC=CC23O[C@@H]4/C=C\\CCC(C)OC(=O)C4[C@H]2C(=O)N(CCCO)[C@@H]3C1=O (some centres undefined)", "0.356 (inactive)"],
  ["COCCOC(=O)N1C(=O)[C@@]2(c3cc(C#CC4(O)CCCCCC4)ccc31)[C@H](c1ccc(O)cc1)N1[C@H](c3ccccc3)[C@H](c3ccccc3)OC(=O)[C@H]1[C@@H]2C(N)=O", "-0.868 (inactive)"],
  ["C=CC[C@]1(C(=O)N2CCCCC2)COC(c2ccc(OCCCO)cc2)=N1", "-2.05 (inactive)"],
  ["COc1ccc(C#Cc2ccc3c(c2)[C@]2(C(=O)N3)[C@H](c3ccc(O)cc3)N3[C@H](c4ccccc4)[C@H](c4ccccc4)OC(=O)[C@H]3[C@@H]2C(=O)N2CCN(c3ncccn3)CC2)cc1", "-0.36 (inactive)"],
  ["COCCCN1C(=O)[C@@]2(Cc3ccccc31)c1ccccc1C(=O)N(Cc1ccccc1Cl)[C@H]2c1ccc(CO)cc1", "0.448 (inactive)"],
  ["Cc1ccc(N2C(=O)c3ccccc3[C@](C)(C(=O)NCC(F)(F)F)[C@@H]2c2ccc(CO)cc2)nc1", "0.0677 (inactive)"],
  ["C=CC[C@@]1(C(=O)NCc2ccccc2)N=C(c2ccc(OCCCO)cc2)O[C@@H]1c1ccccc1", "-2.56 (inactive)"],
  ["C=C(C(=O)CC[C@H](OC(C)=O)c1ccc(CO)o1)C(C)C", "-0.629 (inactive)"],
  ["CC(C)(C)OC(=O)CC[C@@]12N=C(c3ccc(OCCCO)cc3)O[C@@H]1c1ccccc1N(Cc1ccccc1)C2=O", "-3.31 (inactive)"],
  ["C=CCN1C(=O)[C@@]2(O[C@@H](CCO)[C@H]([Si](C)(C)c3ccc(OC)cc3)[C@H]2C)c2cc(N3C(=O)c4cccc5cccc3c45)ccc21", "-1.42 (inactive)"],
  ["CC(C)C(CO)N1C(=O)[C@@H]2C3C(=O)OCCC/C=C\\[C@H]3OC23C=CCN(C(C)C)C(=O)[C@@H]13 (some centres undefined)", "0.366 (inactive)"],
  ["COCCOC(=O)N1C(=O)[C@@]2(c3cc(C#CC4(O)CCCCCC4)ccc31)[C@H](C(=O)NC[C@H](O)c1ccccc1)[C@H]1C(=O)O[C@H](c3ccccc3)[C@H](c3ccccc3)N1[C@@H]2c1ccccc1OCCO", "0.153 (inactive)"],
  ["COC(=O)c1c2oc(c1C(=O)OC)C(=O)N[C@@H](C(C)C)Cn1nncc1C1(CCCCC1)NC(=O)N[C@H](CO)CC2", "-0.993 (inactive)"],
  ["CCCNC(=O)[C@@H]1c2ccccc2C(=O)N(Cc2cc(C(F)(F)F)cc(C(F)(F)F)c2)[C@H]1c1ccc(CO)cc1", "-0.0626 (inactive)"]
]}

====

Quick list: composite z-score per entry.
Biological target: Torsin-1A (Homo sapiens)
Assay: torsin A binders from cell lysate, primary screen, small-molecule microarray, wild-type, 635/667 nm (AID 1149)
Conditions: COS7 hTOR1A-WT lysate, 635 nm fluorescence, higher = more signal
Value type: composite z-score

{"columns": ["Compound", "Target entity", "Val"],
 "data": [
  ["C=C(COC)C(=O)CC[C@H](OC(=O)c1ccccc1-c1ccccc1C(=O)O)c1ccccc1OCCO", "Torsin-1A (Homo sapiens)", 0.241],
  ["C=CCC1(CC=C)C[C@H]2CO[C@H](c3ccc(OC)cc3)N2C1=O", "Torsin-1A (Homo sapiens)", 0.483],
  ["COC(=O)C1=CC(CCCO)=CC(C2CC2)N(Cc2cc3c(cc2Br)OCO3)C=C1C(=O)OC (stereo not drawn)", "Torsin-1A (Homo sapiens)", 0.777],
  ["C=CCN1C(=O)[C@@]2(O[C@@H](CCn3cc(CCO)nn3)[C@H]([Si](C)(C)c3ccc(OC)cc3)[C@H]2C)c2cc(N3C(=O)c4cccc5cccc3c45)ccc21", "Torsin-1A (Homo sapiens)", 0.311],
  ["COc1ccc([Si](C)(C)[C@@H]2[C@@H](CCn3cc([C@H](O)c4ccccc4)nn3)O[C@]3(C(=O)N(C)c4c(Br)cc(C)cc43)[C@H]2C)cc1", "Torsin-1A (Homo sapiens)", 0.722],
  ["COC(=O)C1=CC(c2ccc(CO)cc2)=CC(c2cccs2)N(C)C=C1C(=O)OC (stereo not drawn)", "Torsin-1A (Homo sapiens)", 0.503],
  ["O=C1c2ccccc2C(=O)c2cc([C@H]3Oc4ccccc4S(=O)(=O)N4CCC[C@@H]34)ccc21", "Torsin-1A (Homo sapiens)", -0.474],
  ["COc1ccc([Si](C)(C)[C@@H]2[C@@H](CC(=O)N3CCC[C@H]3CO)O[C@]3(C(=O)N(Cc4ccc(I)cc4)c4ccccc43)[C@H]2C)cc1", "Torsin-1A (Homo sapiens)", 0.626],
  ["COCCCNC(=O)[C@@]1(Cc2ccccc2)N=C(c2ccc(OCCCO)cc2)O[C@H]1c1ccccc1N=[N+]=[N-]", "Torsin-1A (Homo sapiens)", 0.544],
  ["O=c1n(-c2ccccc2)c(=O)n2n1CC(COc1ccccc1)=C1[C@@H](CCc3ccccc3)OB(O)C[C@@H]12", "Torsin-1A (Homo sapiens)", 0.717],
  ["C=C(CCCC)/C(=C/C[C@H](OC(=O)c1ccncc1)c1ccc(CO)o1)c1cnc2ccccc2c1", "Torsin-1A (Homo sapiens)", 0.378],
  ["CC(CO)N1C(=O)[C@@H]2C3C(=O)OCCC/C=C\\[C@H]3OC23C=CCN(Cc2ccccc2)C(=O)[C@@H]13 (stereo partly drawn)", "Torsin-1A (Homo sapiens)", -0.462],
  ["C=CCC(OC(C)=O)[C@@H]1[C@@H](N(Cc2cccc3ccccc23)C(=O)c2cccc3ccccc23)c2cc(OCCCO)ccc2N1C(=O)Cc1ccc(OC)cc1 (stereo partly drawn)", "Torsin-1A (Homo sapiens)", -0.0507],
  ["COc1ccc(C#Cc2ccc3c(c2)[C@]2(C(=O)N3)[C@H](c3ccc(O)cc3)N3[C@H](c4ccccc4)[C@H](c4ccccc4)OC(=O)[C@H]3[C@@H]2C(=O)N2CCN(c3ncccn3)CC2)cc1", "Torsin-1A (Homo sapiens)", 0.246],
  ["CC1CC/C=C\\[C@H]2OC34C=CCN(C(C)C)C(=O)[C@H]3N(C(CO)C(C)C)C(=O)[C@@H]4C2C(=O)O1 (stereo partly drawn)", "Torsin-1A (Homo sapiens)", -0.87],
  ["CCOC(=O)C[C@H]1[C@H](OC(=O)c2ccc(-c3ccccc3)cc2)[C@@H](NC(=O)C2CCCCC2)c2cc(OCCCO)ccc2N1C(=O)c1ccc2ccccc2n1", "Torsin-1A (Homo sapiens)", 0.688],
  ["COCCOC(=O)N1C(=O)[C@@]2(c3cc(C#CC4(O)CCCCCC4)ccc31)[C@H](c1ccccc1OCCO)N1[C@H](c3ccccc3)[C@H](c3ccccc3)OC(=O)[C@H]1[C@@H]2C(=O)Nc1nc2ccccc2s1", "Torsin-1A (Homo sapiens)", 1.2],
  ["CC(C)(C)OC(=O)CC[C@]1(C(=O)NCc2ccccc2)COC(c2ccc(OCCCO)cc2)=N1", "Torsin-1A (Homo sapiens)", -0.208],
  ["O=C1O[C@H](c2ccccc2)[C@H](c2ccccc2)N2[C@H]1[C@@H](C(=O)NC[C@H](O)c1ccccc1)[C@]1(C(=O)Nc3ccc(C#CC4(O)CCCCCC4)cc31)[C@H]2c1ccc(O)cc1", "Torsin-1A (Homo sapiens)", 0.704],
  ["O=C(NO)[C@]1(Cc2ccccc2)N=C(c2ccc(OCCCO)cc2)O[C@@H]1c1ccccc1", "Torsin-1A (Homo sapiens)", -0.427],
  ["C=CCNC(=O)[C@H]1[C@@H]2C(=O)O[C@@H](c3ccccc3)[C@@H](c3ccccc3)N2[C@@H](c2ccccc2OCCO)[C@]12C(=O)N(C(=O)OCCOC)c1ccc(C#CCCO)cc12", "Torsin-1A (Homo sapiens)", 1.02],
  ["CCOC(=O)C[C@H]1[C@H](OC(=O)c2ccc(-c3ccccc3)cc2)[C@@H](NC(=O)c2ccccc2)c2cc(OCCCO)ccc2N1C(=O)c1ccccc1", "Torsin-1A (Homo sapiens)", 0.217],
  ["CN(C)CCCC[C@@H]1NC(=O)[C@@H]2C[C@H](C(=O)NCCCCCNC(=O)CS)[C@H](c3cccc(OCCO)c3)N2C1=O", "Torsin-1A (Homo sapiens)", 0.672],
  ["COCCCNC(=O)[C@@]1(Cc2ccccc2CN=[N+]=[N-])COC(c2ccc(OCCCO)cc2)=N1", "Torsin-1A (Homo sapiens)", 1.22],
  ["O=C1N(CCS(=O)(=O)c2ccccc2)Cc2ccccc2[C@@H]2OC(c3ccc(OCCCO)cc3)=N[C@]12Cc1ccccc1", "Torsin-1A (Homo sapiens)", 0.612],
  ["COC(=O)c1c2oc(c1C(=O)OC)C(=O)N[C@@H](C(C)C)Cn1nncc1C1(CCCCC1)NC(=O)N[C@H](CO)CC2", "Torsin-1A (Homo sapiens)", 0.217],
  ["COc1ccc([Si](C)(C)[C@@H]2[C@@H](CCn3cc(CCO)nn3)O[C@]3(C(=O)N(Cc4ccc(N5C(=O)c6cccc7cccc5c67)cc4)c4ccccc43)[C@H]2C)cc1", "Torsin-1A (Homo sapiens)", 0.815],
  ["CCCC[C@@H](O)C1=C(C)C[C@H]2C(=O)N(C)C(=O)[C@H]2[C@H]1CO", "Torsin-1A (Homo sapiens)", 0.0651]
]}
